Where these numbers come from: PubChem BioAssay AID1189

- ASSAY_NAME: DSSTox (CPDBAS) Carcinogenic Potency Database Summary SingleCellCall Results
- CONDITION_NOTES: animal chronic carcinogenicity bioassays, CPDB summary call
Activity calls are given as the source filed them.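 Rule for the calls: active = a tumor-causing dose value with its tumor site reported for any sex and species group of a rodent or other animal cancer study; inconclusive = only studies judged inadequate by the national testing program; inactive = tested in at least one study, none positive.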

[
  {
    "COMPOUND": "S=C=NCCCCCCc1ccccc1",
    "outcome": "inactive"
  },
  {
    "COMPOUND": "CC/C(=C(/CC)c1ccc(O)cc1)c1ccc(O)cc1",
    "outcome": "active"
  },
  {
    "COMPOUND": "Nc1nc(N)nc(-c2ccccc2)n1",
    "outcome": "inactive; active"
  },
  {
    "COMPOUND": "Cn1cnc([N+](=O)[O-])c1Sc1ncnc2nc[nH]c12",
    "outcome": "active"
  },
  {
    "COMPOUND": "COc1cc(/C=N/NC(=O)c2ccncc2)ccc1O",
    "outcome": "active; inactive"
  },
  {
    "COMPOUND": "O=C1NC(=O)C(c2ccccc2)(c2ccccc2)N1",
    "outcome": "active"
  },
  {
    "COMPOUND": "Nc1ccc(-c2ccccc2)cc1",
    "outcome": "active"
  },
  {
    "COMPOUND": "O=S1(=O)CC=CC1",
    "outcome": "inactive"
  },
  {
    "COMPOUND": "C[N+](C)(C)CCO",
    "outcome": "inactive"
  },
  {
    "COMPOUND": "CCCCCCCN",
    "outcome": "inactive"
  },
  {
    "COMPOUND": "Nc1nc(/C=C/c2ccc([N+](=O)[O-])o2)no1",
    "outcome": "active"
  },
  {
    "COMPOUND": "Oc1ccc(Cl)cc1Cc1ccccc1",
    "outcome": "active"
  },
  {
    "COMPOUND": "NCCS(=O)(=O)O",
    "outcome": "inactive; active"
  },
  {
    "COMPOUND": "Cc1ccc2c(-c3ccccc3)nc(=O)n(C(C)C)c2c1",
    "outcome": "inactive"
  },
  {
    "COMPOUND": "O=C(O)CCC(=O)O",
    "outcome": "inactive; active"
  },
  {
    "COMPOUND": "Cn1c(N)nc2c3cccnc3ccc21",
    "outcome": "active; inactive"
  },
  {
    "COMPOUND": "CCOC(N)=O",
    "outcome": "active; inactive"
  },
  {
    "COMPOUND": "N[C@@H](CC(=O)O)C(=O)O",
    "outcome": "inactive; active"
  },
  {
    "COMPOUND": "COc1ccc(N)cc1N",
    "outcome": "active"
  },
  {
    "COMPOUND": "OCC(O)CCl (centres undefined)",
    "outcome": "inactive"
  },
  {
    "COMPOUND": "CN(C)CCN(Cc1cccs1)c1ccccc1",
    "outcome": "inactive"
  },
  {
    "COMPOUND": "CC(=O)Nc1ccc(S(=O)(=O)c2ccc(NC(C)=O)cc2)cc1",
    "outcome": "active; inactive"
  },
  {
    "COMPOUND": "CN(C)N",
    "outcome": "active"
  },
  {
    "COMPOUND": "O=C1C(O)N=C(c2ccccc2F)c2cc(Cl)ccc2N1CCO (centres undefined)",
    "outcome": "inactive"
  },
  {
    "COMPOUND": "CCOC(=O)C(C)(C)Oc1ccc(Cl)cc1",
    "outcome": "active"
  },
  {
    "COMPOUND": "NC(N)=O",
    "outcome": "inactive"
  },
  {
    "COMPOUND": "CC[C@H]1OC(=O)C[C@@H](O)[C@H](C)[C@@H](O[C@@H]2O[C@H](C)[C@@H](O[C@H]3C[C@@](C)(O)[C@@H](O)[C@H](C)O3)[C@H](N(C)C)[C@H]2O)[C@@H](CC=O)C[C@@H](C)C(=O)/C=C/C(C)=C/C1CO[C@@H]1O[C@H](C)[C@@H](O)[C@@H](OC)[C@H]1OC (some centres undefined)",
    "outcome": "inactive"
  },
  {
    "COMPOUND": "ClCC1CO1 (centres undefined)",
    "outcome": "active"
  },
  {
    "COMPOUND": "O=C1CC(=O)NC(=O)N1",
    "outcome": "inactive"
  }
]
